Cited source for all entries: the supplement of paper PMC10307832

Test system: HCC-44
Assay: relative viability (nuclei count vs DMSO), 5 days (fraction); higher = more cells survive
Details: first compound 0.05 µM
Experimental Readout: relative viability
Reply with just the number.

The following compounds have reported results that may help.
# Compound, Result Number
measured = [
    ("Nc1ccn([C@@H]2O[C@H](CO)[C@@H](O)[C@@H]2O)c(=O)n1 [Cytarabine] + CC(=O)Nc1cccc(-n2c(=O)n(C3CC3)c(=O)c3c(Nc4ccc(I)cc4F)n(C)c(=O)c(C)c32)c1 [Trametinib] (partner 0.02 µM)", 1.08),
    ("Nc1ccn([C@@H]2O[C@H](CO)[C@@H](O)[C@@H]2O)c(=O)n1 [Cytarabine] + O=C(CCCCCCC(=O)Nc1ccccc1)NO [Vorinostat] (partner 1 µM)", 1.08),
]

Return reported relative viability; argument: COc1cc2nccc(Oc3ccc(NC(=O)Nc4cc(C)on4)c(Cl)c3)c2cc1OC [Tivozanib] + CC(=O)Nc1cccc(-n2c(=O)n(C3CC3)c(=O)c3c(Nc4ccc(I)cc4F)n(C)c(=O)c(C)c32)c1 [Trametinib] (partner 0.02 µM)
1.05

Return reported relative viability; argument: COc1cc2nccc(Oc3ccc(NC(=O)Nc4cc(C)on4)c(Cl)c3)c2cc1OC [Tivozanib] + O=C(CCCCCCC(=O)Nc1ccccc1)NO [Vorinostat] (partner 1 µM)
1.1

Return reported relative viability; argument: Nc1ccn([C@@H]2O[C@H](CO)[C@@H](O)[C@@H]2O)c(=O)n1 [Cytarabine] + CCNC(=O)c1noc(-c2cc(C(C)C)c(O)cc2O)c1-c1ccc(CN2CCOCC2)cc1 [Luminespib] (partner 0.01 µM)
0.403

Return reported relative viability; argument: COc1cc2nccc(Oc3ccc(NC(=O)Nc4cc(C)on4)c(Cl)c3)c2cc1OC [Tivozanib] + Cc1nc(NC(=O)N2CCC[C@H]2C(N)=O)sc1-c1ccnc(C(C)(C)C(F)(F)F)c1 [Alpelisib] (partner 2 µM)
0.803

Return reported relative viability; argument: Nc1ccn([C@@H]2O[C@H](CO)[C@@H](O)[C@@H]2O)c(=O)n1 [Cytarabine] + Nc1nc2[nH]cc(CCc3ccc(C(=O)N[C@@H](CCC(=O)O)C(=O)O)cc3)c2c(=O)[nH]1 [Pemetrexed] (partner 0.2 µM)
0.67

Return reported relative viability; argument: Nc1ccn([C@@H]2O[C@H](CO)[C@@H](O)[C@@H]2O)c(=O)n1 [Cytarabine] + CS(=O)(=O)N1CCN(Cc2cc3nc(-c4cccc5[nH]ncc45)nc(N4CCOCC4)c3s2)CC1 [Pictilisib] (partner 1 µM)
0.5

Return reported relative viability; argument: Nc1ccn([C@@H]2O[C@H](CO)[C@@H](O)[C@@H]2O)c(=O)n1 [Cytarabine] + Cc1cc(Nc2cc(N3CCN(C)CC3)nc(Sc3ccc(NC(=O)C4CC4)cc3)n2)n[nH]1 [Tozasertib] (partner 0.1 µM)
0.418

Return reported relative viability; argument: Nc1ccn([C@@H]2O[C@H](CO)[C@@H](O)[C@@H]2O)c(=O)n1 [Cytarabine] + C[C@]1(O)C[C@@H](c2nc(-c3ccc4ccc(-c5ccccc5)nc4c3)c3c(N)nccn32)C1 [Linsitinib] (partner 1 µM)
0.384

Return reported relative viability; argument: COc1cc2nccc(Oc3ccc(NC(=O)Nc4cc(C)on4)c(Cl)c3)c2cc1OC [Tivozanib] + CC(C)C[C@H](NC(=O)[C@H](Cc1ccccc1)NC(=O)c1cnccn1)B(O)O [Bortezomib] (partner 0.002 µM)
0.92

Return reported relative viability; argument: COc1cc2nccc(Oc3ccc(NC(=O)Nc4cc(C)on4)c(Cl)c3)c2cc1OC [Tivozanib] + CS(=O)(=O)CCNCc1ccc(-c2ccc3ncnc(Nc4ccc(OCc5cccc(F)c5)c(Cl)c4)c3c2)o1 [Lapatinib] (partner 2 µM)
1.01

Return reported relative viability; argument: Nc1ccn([C@@H]2O[C@H](CO)[C@@H](O)[C@@H]2O)c(=O)n1 [Cytarabine] + CC(C)C[C@H](NC(=O)[C@H](Cc1ccccc1)NC(=O)c1cnccn1)B(O)O [Bortezomib] (partner 0.002 µM)
0.793

Return reported relative viability; argument: COc1cc2nccc(Oc3ccc(NC(=O)Nc4cc(C)on4)c(Cl)c3)c2cc1OC [Tivozanib] + C[C@]1(O)C[C@@H](c2nc(-c3ccc4ccc(-c5ccccc5)nc4c3)c3c(N)nccn32)C1 [Linsitinib] (partner 1 µM)
0.641
